Target: T1, Siglec10-mIgG2aFc fusion protein (AcroBiosystems, SI0-H525b, HEK293 cell derived) (human, UniProt Q96LC7 17-546)
T1 construct: Bought reagent; also called recombinant human Siglec-10-mIgGFc protein; not shown: mouse IgG2a Fc
T1 sequence (looked up): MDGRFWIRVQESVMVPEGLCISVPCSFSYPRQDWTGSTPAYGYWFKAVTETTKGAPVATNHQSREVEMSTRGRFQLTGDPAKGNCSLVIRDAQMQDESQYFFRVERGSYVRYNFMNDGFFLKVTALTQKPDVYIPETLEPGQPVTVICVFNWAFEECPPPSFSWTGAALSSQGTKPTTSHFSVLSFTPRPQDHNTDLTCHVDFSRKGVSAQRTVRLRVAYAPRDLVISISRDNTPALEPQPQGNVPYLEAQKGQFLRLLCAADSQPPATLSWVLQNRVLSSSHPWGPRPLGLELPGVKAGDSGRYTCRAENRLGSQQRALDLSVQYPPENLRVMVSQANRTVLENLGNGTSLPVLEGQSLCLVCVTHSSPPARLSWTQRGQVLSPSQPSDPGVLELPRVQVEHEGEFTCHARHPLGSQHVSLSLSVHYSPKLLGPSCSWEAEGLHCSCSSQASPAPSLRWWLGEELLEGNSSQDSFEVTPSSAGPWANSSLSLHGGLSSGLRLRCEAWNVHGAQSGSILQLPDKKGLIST
Assay: ELISA, Siglec10-mIgG2aFc coated, detection by anti-human IgG-Fc-HRP
metric: pEC50
A value of pEC50 is the negative decimal logarithm of a concentration given in moles per litre.

pEC50 reading for SETTTGTSSNSSQSTSNSGLAPNPTNATTK (Fc fusion, UniProt P25063 27-56, looked up, Comparator protein; also called CD24Fc protein; not shown: Fc detected by anti-human IgG-Fc antibody) [CD24Fc fusion protein] : 5.55
